We begin with a simple list: items and their reported growth.
Test system: KM12 colon
Assay protocol: NCI-60 one-dose screen, 48 h (100 = growth as untreated, 0 = no growth, -100 = all killed)
Condition set: 10 µM unless noted
Compounds without any hit were thinned out: in the full panel of roughly 83,000, 20% have a hit. The source made the active and inactive calls. The calls were made as follows: active = growth percent below 10; inactive = the rest.

# count of solved cases: 8
| Molecule | growth |
| --- | --- |
| O=c1cc(CSc2nnc(-c3ccc(F)cc3)o2)c2ccc3ccccc3c2o1 | 100% (inactive) |
| Nc1nc2ncc(CCNc3ccc(C(=O)O)cc3)nc2c(=O)[nH]1 | 111% (inactive) |
| CCCCn1c(-c2ccc(C(=O)O/N=C(\N)c3ccc4ccccc4c3)cc2)nc(-c2ccccc2)c1-c1ccccc1 | 76.7% (inactive) |
| CCOc1cc2c(cc1OCC)C(c1cc(OC)c(O)cc1Cl)NCC2 (configuration not stated) | 88.9% (inactive) |
| COc1ccc(C2CC(c3ccc(Cl)cc3)=NN2/C=C2\SC(=S)N(NC(=O)Cc3ccccc3Nc3c(Cl)cccc3Cl)C2=O)cc1 (configuration not stated) | 85.4% (inactive) |
| O=C1/C(=C/c2ccc(OCCCOc3ccc(Cl)cc3)cc2)N=C2SCCCN12 | 70.8% (inactive) |
| CC1(C)CC[C@]2(C(=O)Nc3ccccn3)CC[C@]3(C)C(=CC[C@@H]4[C@@]5(C)C/C(=C/c6cccnc6)C(=O)C(C)(C)[C@@H]5CC[C@]43C)[C@H]2C1 | 40.1% (inactive) |
| COc1ccc(-c2cc(Nc3ccnc(N4CCOCC4)n3)on2)cc1 | 20.3% (inactive) |

Please give measured growth of the following entry: CC(=O)O[C@H]1CC[C@]2(C)[C@H]3CC=C4[C@@H]5CC(C)(C)CC[C@]5(C(=O)NCCNCCNCCN)CC[C@@]4(C)[C@]3(C)CC[C@H]2C1(C)C
85.3% (inactive)

Using known records, supply growth for CCOC(=O)c1cc(C(=O)c2ccc(O)c(O)c2)n2ccc(-c3ccn4c(C(=O)c5ccc(O)c(O)c5)cc(C(=O)OCC)c4c3)cc12
97% (inactive)

Hello, please tell me recorded growth for this one: CC(C)(C)N1CCC1CN (configuration not stated)
107% (inactive)

Check the records and state growth for CCN1CCN(c2nc(NCCCNc3ccnc4cc(Cl)ccc34)c3ccccc3n2)CC1
29.3% (inactive)

Kindly indicate its recorded growth. Item: O=C(O)COc1ccc(Cl)cc1C1CCCCC1
103% (inactive)

Provide one value: measured growth of Cn1ccnc1C(=O)/C=C/c1ccc(CC(=O)Nc2ccccc2)cc1
3.7% (active)

Output growth of COc1ccccc1Nc1nc(-c2cc3cccc(C(F)(F)F)c3oc2=O)cs1
3.87% (active)

Let me know recorded growth for Cc1[nH]c(-c2cc(N)ccc2Cl)c2c1C(=O)CCCC2 , thanks.
32.6% (inactive)

Return growth for the following molecule: COc1cc(C(=O)Oc2ccccc2OC(=O)c2cc(OC)c(OC)c(OC)c2)cc(OC)c1OC
90.8% (inactive)

For the molecule N#Cc1cnn(-c2nc3c(Cl)cccc3s2)c1N , give its measured growth value.
88.7% (inactive)

----------
System: K-562 leukemia
Assay protocol: NCI-60 one-dose screen, 48 h
Condition set: 10 µM unless noted
This is part of a sample that, as a whole, favours compounds with a hit. Of some 83,000 tested, about 20% had one in any assay. Activity calls are given as the source filed them. The calls were made as follows: active = growth percent below 10; inactive = the rest.
Tick one outcome: 1 (active), 0 (inactive)

Worked examples, 3 compounds total:
| Compound | Group |
| --- | --- |
| C#CC(F)(F)[C@]1(O)CC[C@H]2[C@@H]3CCC4=CC(=O)CCC4=C3[C@@H](c3ccc(C(C)=O)cc3)C[C@@]21C | 0 |
| COc1ccc2nc(NC(=O)CSc3nnc4n3S(=O)(=O)c3ccccc3N4c3ccccc3)sc2c1 | 0 |
| CC(C)C1=C[C@@]23CC[C@@H]4[C@](C)(CCC[C@@]4(C)C(=O)N4CCCNCC4)[C@H]2C[C@@H]1[C@H]1C(=O)CCC(=O)[C@H]13 | 0 |

Assay result, entry Cc1cc(N2CCOCC2)nc(NCc2cc(Nc3ccnc4cc(Cl)ccc34)ccc2F)n1 — outcome?
1

Just curious, what result did CCN(CC)c1ccc(/C=N\NC(=O)/C=C/C=C/c2ccc3c(c2)OCO3)c(O)c1 get here?
0

Call for entry N#C/C(=C\c1ccc(-c2ccc(Cl)c(Cl)c2)o1)c1nc(-c2ccco2)cs1 :
0

For COc1ccc(C2Nc3c(c(C(C)(C)C)nn3-c3ccccc3)C(=O)CS2)cc1 (stereo not drawn) , what call appears in the results of this test?
0

For Nc1ccc(-c2cc3c(Nc4ccc(Oc5cccc(C(F)(F)F)c5)c(Cl)c4)ncnc3s2)cc1 , what call appears in the results of this test?
0
